Just for reference, patent EP0944628B1 is where these values come from.

Tested on: A2780 S cells
Measurement protocol: Two cell line test procedure, in vitro cytotoxicity (sulforhodamine B), A2780 S
Type: cell-based
Applied conditions: Homo sapiens, A2780S, 48 hours exposure
Measurement name: IC50

# lookup: IC50 of CN(C)CCNC(=O)c1cccn2c(=O)c3ccc(-c4cccnc4)cc3nc12
0.6 µg/mL

Look up IC50: CN(C)CCNC(=O)c1cccn2c(=O)c3cc(-c4cccnc4)ccc3nc12
0.9 µg/mL

Which IC50 is reported for this compound? CN(C)CCNC(=O)c1cccn2c(=O)c3cc(-c4cnc5ccccc5c4)ccc3nc12
4.5 µg/mL

I have this compound here, CN(C)CCNC(=O)c1cccn2c(=O)c3ccc(-c4ccncc4)cc3nc12 , and I need its recorded IC50.
7 µg/mL

Looking for the measured IC50 of O=C(NCCN1CCCC1)c1cccn2c(=O)c3cc(-c4ccncc4)ccc3nc12 , can you help?
0.8 µg/mL

Which IC50 value belongs to CN(C)CCNC(=O)c1cccn2c(=O)c3cc(-c4ccncc4)ccc3nc12 ?
0.7 µg/mL
